Each entry below lists one item and its recorded IC50 value.
System: Endogenous Huntingtin Protein
Experiment: Endogenous Huntingtin Protein Assay (Meso Scale Discovery ELISA-based electrochemiluminescence)
Type: cell-based
Conditions: MSD plates coated with MW1 (expanded polyglutamine) or MAB2166 capture antibody; lysates

For orientation, consider the following solved cases.
                                   molecule            value
0  CCOc1cc(-c2ccc(-c3cc4nnn(C5CC(C)(C)NC(C)(C)C5)c4nn3)c(O)c2)ccn1 [Cpd 123]  3000 to 9000 nM
1  CC1(C)CC(n2cnc3cc(-c4cc(F)c(-c5cn[nH]c5)cc4F)nnc32)CC(C)(C)N1 [Cpd 4]         ≤ 100 nM
2  CC1(C)CC(n2nnc3cc(-c4ccc(-c5ccnc(N)c5)cc4O)nnc32)CC(C)(C)N1 [Cpd 99]         ≤ 100 nM
3  Cc1cn(-c2ccc(-c3cc4nnn(C5CC(C)(C)NC(C)(C)C5)c4nn3)c(O)c2)cn1 [Cpd 144]         ≤ 100 nM
4  Cn1ncc(-c2ccc(-c3cc4nnn(C5CC(C)(C)NC(C)(C)C5)c4nn3)c(O)c2)n1 [Cpd 151]         ≤ 100 nM

Supply measured IC50 of CC1(C)CC(n2nnc3cc(-c4cc(F)c(-c5cn[nH]c5)cc4F)nnc32)CC(C)(C)N1 [Cpd 14] in your reply. 100 to 500 nM

Supply measured IC50 of Oc1cc(-c2cn[nH]c2)ccc1-c1cc2[nH]cc(C3CC4COCC(C3)N4)c2nn1 (centres unmarked) [Cpd 30] in your reply. 500 to 1000 nM

Supply measured IC50 of Cc1nc2cc(-c3ccc(-c4cn[nH]c4)cc3O)nnc2n1C1CC(C)(C)NC(C)(C)C1 [Cpd 5] in your reply. ≤ 100 nM

----------
Tested on: Endogenous Huntingtin Protein
Assay: Endogenous Huntingtin Protein Assay (Meso Scale Discovery ELISA-based electrochemiluminescence)
Assay type: cell-based
Details: MSD plates coated with MW1 (expanded polyglutamine) or MAB2166 capture antibody; lysates
Method: Compounds of Formula (I) were tested using the Meso Scale Discovery (MSD) Assay provided in International Application No. PCT/US2016/066042, filed on Dec. 11, 2016 and claiming priority to United States Provisional Application U.S. 62/265,652 filed on Dec. 10, 2015, the entire contents of which are incorporated herein by reference. The Endogenous Huntingtin Protein assay used in Example 1 was developed using the ELISA-based MSD electrochemiluminescence assay platform. […]
assay-endpoint: IC50

For orientation, consider the following solved cases.
>>> df
                    structure_smiles_string                         system  assay_endpoint     value
0  CC1(C)CC(n2nnc3cc(-c4ccc(-c5cc[nH]c(=O)c5)cc4O)nnc32)CC(C)(C)N1  Endogenous Huntingtin Protein            IC50  ≤ 100 nM
1  CC1(C)CC(n2ccc3nc(-c4ccc(-c5cn[nH]c5)cc4O)cnc32)CC(C)(C)N1  Endogenous Huntingtin Protein            IC50  ≤ 100 nM
2  CC1(C)CC(n2nnc3cc(-c4ccc(-c5cc(F)c6nn[nH]c6c5)cc4O)nnc32)CC(C)(C)N1  Endogenous Huntingtin Protein            IC50  ≤ 100 nM

Supply measured IC50 of Cn1cnc(-c2ccc(-c3cc4nnn([C@H]5CC(C)(C)NC(C)(C)[C@H]5F)c4nn3)c(O)c2)cc1=O in your reply. 100 to 500 nM
